# assayedTarget: CYP1A2 (Homo sapiens, UniProt P05177)
# Sequence (P05177 whole entry): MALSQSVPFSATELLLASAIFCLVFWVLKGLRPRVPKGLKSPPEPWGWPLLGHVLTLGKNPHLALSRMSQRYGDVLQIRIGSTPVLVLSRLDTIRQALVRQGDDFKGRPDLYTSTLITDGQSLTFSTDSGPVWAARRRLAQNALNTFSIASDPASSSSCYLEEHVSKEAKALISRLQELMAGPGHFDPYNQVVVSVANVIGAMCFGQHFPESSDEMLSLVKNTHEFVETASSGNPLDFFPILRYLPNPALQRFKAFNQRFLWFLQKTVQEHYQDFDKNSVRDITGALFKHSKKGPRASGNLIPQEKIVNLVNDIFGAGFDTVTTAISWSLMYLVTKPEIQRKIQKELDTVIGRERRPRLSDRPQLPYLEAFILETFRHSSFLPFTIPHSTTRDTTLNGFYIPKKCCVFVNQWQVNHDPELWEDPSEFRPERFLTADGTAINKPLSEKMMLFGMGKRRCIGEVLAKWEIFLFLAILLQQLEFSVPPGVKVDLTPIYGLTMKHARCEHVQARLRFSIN
# testDetails: in vitro
# studyConditions: microsomes, pH 7.4
measureName: IC50 (µg/mL)

* COc1cc(O)c2c(c1)C(=O)c1cc(C)cc(O)c1C2=O | 0.43

====

# assayedTarget: UniProtKB P08684
# studyConditions: human liver microsomes
measureName: inhibitor strength toward CYP3A4 activity (in words)

- Cc1cc(O)c2c(c1)C(=O)c1cc(O)cc(O)c1C2=O [Emodin]: moderate inhibitors
- O=C1c2cccc(O)c2C(=O)c2c(O)cc(CO)cc21 [Aloe-emodin]: moderate inhibitors

====

Reported pIC50 values for a set of molecules
# assayedTarget: CYP3A4 (Homo sapiens, UniProt P08684)
# Sequence (P08684 whole entry): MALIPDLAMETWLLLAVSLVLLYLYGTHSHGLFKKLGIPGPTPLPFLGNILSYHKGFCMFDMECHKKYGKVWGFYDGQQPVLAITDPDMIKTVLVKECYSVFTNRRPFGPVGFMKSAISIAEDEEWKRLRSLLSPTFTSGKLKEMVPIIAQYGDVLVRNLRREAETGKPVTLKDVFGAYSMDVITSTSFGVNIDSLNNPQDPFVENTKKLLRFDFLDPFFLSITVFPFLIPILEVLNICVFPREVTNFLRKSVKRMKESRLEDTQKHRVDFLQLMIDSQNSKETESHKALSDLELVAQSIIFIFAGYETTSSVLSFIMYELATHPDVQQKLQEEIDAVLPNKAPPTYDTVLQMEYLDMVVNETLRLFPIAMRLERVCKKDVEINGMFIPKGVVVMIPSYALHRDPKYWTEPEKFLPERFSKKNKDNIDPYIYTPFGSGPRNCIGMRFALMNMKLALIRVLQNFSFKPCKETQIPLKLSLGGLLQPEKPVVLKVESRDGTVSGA
pIC50: −log10 of the molar value.
measureName: pIC50

* O=C1c2cccc(O)c2C(=O)c2c(O)cc(CO)cc21 | 5.08
* O=C(O)c1cc(O)c2c(c1)C(=O)c1cccc(O)c1C2=O | 4.01
* Cc1cc(O)c2c(c1)C(=O)c1cc(O)cc(O)c1C2=O | 4.82

====

# assayedTarget: UniProt:P05177
# testDetails: biochemical
measureName: IC50 (nM)

• O=C(O)c1cc(O)c2c(c1)C(=O)c1cccc(O)c1C2=O = 2180
• Cc1cc(O)c2c(c1)C(=O)c1cccc(O)c1C2=O = 1730
• Cc1cc(O)c2c(c1)C(=O)c1cc(O)cc(O)c1C2=O = 67000
• O=C(O)c1cc(O)c2c(c1)[C@@H]([C@H]1c3cc(C(=O)O)cc(O)c3C(=O)c3c(O[C@@H]4O[C@H](CO)[C@@H](O)[C@H](O)[C@H]4O)cccc31)c1cccc(O[C@@H]3O[C@H](CO)[C@@H](O)[C@H](O)[C@H]3O)c1C2=O [Sennoside B] = 33100
• O=C1c2cccc(O)c2C(=O)c2c(O)cc(CO)cc21 = 1550
